Kindly supply the reported MIC values for the records listed here.
# Tested on: Escherichia coli
# test_method_notes: Antibacterial activity against Escherichia coli by micro-broth dilution method
# Type: functional

[[record]]
smiles_data = "O=C1C(Cl)=C(Oc2ccc(Cl)cc2)C(=O)c2ccccc21"
observed_property = "MIC"
recorded_value = "> 50 µg/mL"

[[record]]
smiles_data = "Cc1ccc(OC2=C(Sc3ccccc3)C(=O)c3ccccc3C2=O)cc1"
observed_property = "MIC"
recorded_value = "> 50 µg/mL"


As a next step, examine the compound that follows.
I am curious: what MIC value has been reported for O=C1C(Cl)=C(Oc2ccc3ccccc3c2)C(=O)c2ccccc21 ?
> 50 µg/mL
